Would you mind telling me the reported Cell viability, HUVEC, Data2 of each entry?
tested on: human umbilical vein endothelial cells (HUVEC)
Ends that are not written are not given here.
Numbers only.

Check out these entries, answers already filled in.
| SUBSTANCE | Cell viability, HUVEC, Data2 |
| --- | --- |
| LQDVVE [TaPep24] | 106.25 |
| TAEQVA [TaPep33] | 114.32 |

Go through the list and state Cell viability, HUVEC, Data2 for each entry.
1. FPEQQD [TaPep16]
2. DAELDK [TaPep34]
3. SNDPVA [TaPep71]
4. HIDELDE [TaPep22]
5. FTEELE [TaPep32]
6. EEVPITD [TaPep46]
7. SLEYLP [TaPep35]
8. LQPDAGK [TaPep6]

*A*
1. 107.69
2. 95.80
3. 97.95
4. 106.97
5. 89.81
6. 97.55
7. 100.03
8. 115.19

Go through the list and state Cell viability, HUVEC, Data2 for each entry.
1. IAVPHEP [TaPep47]
2. LWGPVT [TaPep72]
3. PTELESD [TaPep41]
4. TDPELV [TaPep60]
5. TQEVVN [TaPep25]
6. NNDDEES [TaPep50]
7. NGDDEEG [TaPep7]
8. EFPEQN [TaPep17]

*A*
1: 112.48; 2: 101.62; 3: 102.98; 4: 106.41; 5: 89.33; 6: 108.73; 7: 110.16; 8: 94.12

* * *

system: human embryonic kidney cells (HEK293T)
Ends that are not written are not given here.
Rule: Cell viability, HEK293T, Data3 below 100 gives criterion met, anything at or above gives criterion not met.

| SUBSTANCE | TARGET_ENTITY | LABEL_VALUE |
| --- | --- | --- |
| KADGNR [TaPep4] | human embryonic kidney cells (HEK293T) | criterion not met |
| LGDDLVK [TaPep19] | human embryonic kidney cells (HEK293T) | criterion not met |
| LQDVVE [TaPep24] | human embryonic kidney cells (HEK293T) | criterion met |
| EDGPHGD [TaPep45] | human embryonic kidney cells (HEK293T) | criterion met |
| DQEPVE [TaPep44] | human embryonic kidney cells (HEK293T) | criterion not met |

*Q* API: query returns whether the substance falls strictly under 100 in Cell viability, HEK293T, Data3. Query: VPDELN [TaPep23]
*A* criterion met

*Q* Same question for DAELDK [TaPep34] please.
*A* criterion not met

*Q* Same question for TDPELV [TaPep60] please.
*A* criterion not met

*Q* Same question for AKDEKEL [TaPep1] please.
*A* criterion met

*Q* Same question for NGDDEEG [TaPep7] please.
*A* criterion met

*Q* Same question for TIDDELR [TaPep26] please.
*A* criterion not met

*Q* Same question for EQPLQA [TaPep21] please.
*A* criterion not met

* * *

Would you mind telling me the reported Cell viability, HUVEC, Data3 of each entry?
test system: human umbilical vein endothelial cells (HUVEC)
Ends that are not written are not given here.
One number for each entry.

| SUBSTANCE | TEST_RESULT |
| --- | --- |
| SLEYEFK [TaPep38] | 100.27 |
| LGDDLVK [TaPep19] | 111.76 |
| FPEQQD [TaPep16] | 93.88 |
| AEDNSL [TaPep43] | 91.33 |
| STGTIR [TaPep51] | 111.04 |
| VARLEA [TaPep9] | 89.65 |
| TDPELV [TaPep60] | 108.73 |
| PTELESD [TaPep41] | 98.11 |

*Q* Test system human umbilical vein endothelial cells (HUVEC); read-out Cell viability, HUVEC, Data3; what value for SVLEFS [TaPep52] ?
*A* 115.27

* * *

test: Electronic tongue analysis (Taste-Sensing System SA 402B); design: unit not given here; settings: sensor CT0, peptide 0.1 mg/mL, reference solution 30 mM KCl + 0.3 mM tartaric acid as baseline, detection threshold -6, room temperature, four replicates, first measurement excluded
Ends that are not written are not given here.
ENDPOINT_LABEL: Salty
Answers are plain numbers.

| SUBSTANCE | Salty |
| --- | --- |
| EEVPITD [TaPep46] | -21.33 |
| HIDELDE [TaPep22] | -22.87 |
| HGGDDLG [TaPep28] | -21.08 |
| EQPLQA [TaPep21] | -19.46 |
| STGTIR [TaPep51] | -19.53 |
| APEELDA [TaPep36] | -18.92 |
| IAVPHEP [TaPep47] | -19.15 |
| FPEQQD [TaPep16] | -21.97 |

Proceed to the following item.
*Q* Can you look up the measured Salty of NGDDEEG [TaPep7] for me?
*A* -21.22

* * *

test: Electronic tongue analysis (Taste-Sensing System SA 402B); parameters: unit not given here; details: sensor CT0, peptide 1 mg/mL, reference solution 30 mM KCl + 0.3 mM tartaric acid as baseline, detection threshold -6, room temperature, four replicates, first measurement excluded
Ends that are not written are not given here.
Categories are assigned from the measured Salty using these intervals: LOW (below 8), MID (8 to below 10), HIGH (10 or more)

| SUBSTANCE | LABEL_VALUE |
| --- | --- |
| HGGDDLG [TaPep28] | HIGH |
| SVLEFS [TaPep52] | LOW |
| EDGPHGD [TaPep45] | MID |
| YDGTPLN [TaPep11] | LOW |
| TDPELV [TaPep60] | MID |
| DFKEELPK [TaPep42] | HIGH |
| NGDDEEG [TaPep7] | MID |
| DAELDK [TaPep34] | HIGH |

*Q* Textbook exercise: identify the category of the substance given here, YQAENKH [TaPep14] , according to its measured value.
*A* HIGH

*Q* Same question for APEELDA [TaPep36] please.
*A* HIGH

*Q* Same question for EQPLQA [TaPep21] please.
*A* LOW

*Q* Same question for EVGMQE [TaPep56] please.
*A* LOW

*Q* Same question for TQEVVN [TaPep25] please.
*A* LOW

*Q* Same question for FTEELE [TaPep32] please.
*A* MID

*Q* Same question for KADGNR [TaPep4] please.
*A* HIGH

*Q* Same question for AEDNSL [TaPep43] please.
*A* LOW

*Q* Same question for SLEYEFK [TaPep38] please.
*A* HIGH

*Q* Same question for EEVPITD [TaPep46] please.
*A* LOW

*Q* Same question for LGDDLVK [TaPep19] please.
*A* MID

* * *

system: human embryonic kidney cells (HEK293T)
Ends that are not written are not given here.
Would you mind telling me the reported Cell viability, HEK293T, Data3 of each entry?

| SUBSTANCE | Cell viability, HEK293T, Data3 |
| --- | --- |
| VARLEA [TaPep9] | 101.64 |

Go through the list and state Cell viability, HEK293T, Data3 for each entry.
1. SVLEFS [TaPep52]
2. FTEELE [TaPep32]
3. LWGPVT [TaPep72]
4. VAEDLL [TaPep8]
5. YQAENKH [TaPep14]
6. DQKVLA [TaPep3]
7. AQDDLP [TaPep20]
8. EQGEQN [TaPep15]

*A*
1. 97.10
2. 97.48
3. 104.76
4. 105.24
5. 103.44
6. 104.76
7. 98.80
8. 92.56

* * *

Would you mind telling me the reported Average cell viability, HEK293T of each entry?
tested on: human embryonic kidney cells (HEK293T)
Ends that are not written are not given here.
Numbers only.

Check out these entries, answers already filled in.
| SUBSTANCE | Average cell viability, HEK293T |
| --- | --- |
| LQPDAGK [TaPep6] | 98.83 |
| IAVPHEP [TaPep47] | 100.09 |

Go through the list and state Average cell viability, HEK293T for each entry.
1. TIDDELR [TaPep26]
2. VAEDLL [TaPep8]
3. LQDVVE [TaPep24]
4. LQPSLEH [TaPep59]

*A*
99.46
101.07
99.02
98.64

* * *

Let's go through some recorded Cell viability, HUVEC, Data3 values for human umbilical vein endothelial cells (HUVEC) together.
Ends that are not written are not given here.
Answers are plain numbers.

| SUBSTANCE | TARGET_ENTITY | Cell viability, HUVEC, Data3 |
| --- | --- | --- |
| NGDDEEG [TaPep7] | human umbilical vein endothelial cells (HUVEC) | 91.88 |
| KADGNR [TaPep4] | human umbilical vein endothelial cells (HUVEC) | 99.39 |

Proceed to the following item.
*Q* Can you look up the measured Cell viability, HUVEC, Data3 of VPDELN [TaPep23] for me?
*A* 99.39
